Assay: Critical micelle concentration (CMC) measurement with Nile Red
Type: physicochemical
Conditions: deionized water
Experimental: CMC Measurement. […] The stock solution of Nile Red was initially prepared by dissolving the dye in acetone at 50 μM. […] Fluorescent spectra of Nile Red were then monitored by a Fluorolog fluorometer (Jobin Yvon, Edison, NJ) with fixed excitation wavelength at 560 nm; emission spectra were monitored 580-720 nm. The CMC of IAs is determined by a blue-shift of the emission maximum, whereas this transition occurs as the incubated peptides exceed their CMC values. […]
Where no end group is shown, it is not given here. The star is where a group is joined. Palmitoyl = CCCCCCCCCCCCCCCC(=O)*; Octanoyl = CCCCCCCC(=O)*; C12H21O = C12 acyl
Measurement type: CMC

FNMQQQRRFYEALHDK(SEQ ID NO: 3)-C16H31O (not fully specified (residue 16); also: C-terminal C16 acyl (C16H31O), attachment not given here) [Helix1-C16]	0.5 to 1 µM
(C8H15O)2-KPNLNEEQRNAKIKSIRDD (SEQ ID NO: 7) (not fully specified (residue 1, N-terminus); printed as (C8H15O)2-KPNLNEEQRNAKIKSIRDD; also: two octanoyl chains (C8H15O)2 at N-terminal Lys, places not given here) [2C8-Helix2]	5 to 10 µM
C16H31O- PNLNEEQRNAKIKSIRDD (SEQ ID NO: 5) (Palmitoyl-PNLNEEQRNAKIKSIRDD) [C16-Helix2]	0.5 to 1 µM
FNMQQQRRFYEALHDK (SEQ ID NO: 3)-C8H15O (not fully specified (residue 16); also: C-terminal C8 acyl (C8H15O), attachment not given here) [Helix1-C8]	>100 µM
C8H15O- PNLNEEQRNAKIKSIRDD (SEQ ID NO: 5) (Octanoyl-PNLNEEQRNAKIKSIRDD) [C8-Helix2]	>100 µM
C12H21O- PNLNEEQRNAKIKSIRDD (SEQ ID NO: 5) (C12H21O-PNLNEEQRNAKIKSIRDD) [C12-Helix2]	2 to 5 µM
FNMQQQRRFYEALHDK(SEQ ID NO: 3)-C12H21O (FNMQQQRRFYEALHDK(C12H21O); not fully specified) [Helix1-C12]	5 to 10 µM

Kindly consider the entry below.
Suppose we examine the substance FNMQQQRRFYEALHDKK(SEQ ID NO: 4)-(C8H15O)2 (not fully specified (residues 16, 17); also: two C-terminal octanoyl chains (C8H15O)2, places not given here) [Helix1-2C8] ; what CMC value has been reported?
10 to 20 µM
